study.target: biotinylated CD59 (Homo sapiens)
Construct: Recombinant soluble human CD59 with an additional C-terminal cysteine residue
Sequence (P13987 26-102 limits assumed): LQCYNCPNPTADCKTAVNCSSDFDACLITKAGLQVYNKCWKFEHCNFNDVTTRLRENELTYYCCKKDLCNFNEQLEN
test.description: mRNA-display cyclic peptide screen against CD59-biotin, NGS abundance after 6th selection round
condition.details: NGS sample Seq II, sheet R6 (6th selection round)
Text: To discover novel non‐protein CD59 ligands, we screened a library of 10^12 cyclic peptides against CD59 using mRNA‐display (Figure 2a).^[ [23], [24], [25], [26], [27], [28], [29] ^] Briefly, an mRNA library was designed in which the start codon was reprogrammed from Met to N‐chloroacetyl‐D‐Tyr (ClAc‐D‐Tyr), followed by 10–12 randomly encoded natural amino acids, a Cys residue, a (GlySer)3 linker, and a stop codon. […]
parameter: Counts (raw counts for peptide sequence), Seq II
Answer with a bare number; do not write a unit.

Some entries whose results are on file:
residue.string | readout.number
KWGSSFFTLYRV | 4
FRGRNDICTH | 8
HQECWARGSRE | 5

response.value for `CYGDRTFIYAWS` (field: Counts (raw counts for peptide sequence), Seq II) = 10

response.value for `VYGSRYASIPFC` (field: Counts (raw counts for peptide sequence), Seq II) = 9
